Biological target: Aurora B (Homo sapiens, UniProt Q96GD4)
Sequence (Q96GD4 whole entry): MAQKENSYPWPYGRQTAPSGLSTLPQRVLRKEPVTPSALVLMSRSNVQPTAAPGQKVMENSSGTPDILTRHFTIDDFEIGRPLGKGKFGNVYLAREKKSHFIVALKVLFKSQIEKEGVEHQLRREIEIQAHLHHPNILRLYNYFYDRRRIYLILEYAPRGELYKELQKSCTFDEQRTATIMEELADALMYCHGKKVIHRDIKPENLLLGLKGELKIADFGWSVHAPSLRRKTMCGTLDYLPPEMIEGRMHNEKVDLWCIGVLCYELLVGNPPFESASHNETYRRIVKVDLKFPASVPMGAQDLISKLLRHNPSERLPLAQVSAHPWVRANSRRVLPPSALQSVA
Test: Aurora B kinase inhibition
Type: biochemical
Settings: Table 3; Mean ± SEM
assay-endpoint: pIC50
Give bare numbers, as −log10 of the molar value.

These solved cases illustrate the format of a correct answer.
[[record]]
chem_smiles = "Cc1cc(Nc2ccn[nH]2)nc(CC2CCN(C(=O)c3cccc(Cl)c3F)CC2)n1"
test_system = "Aurora B (Homo sapiens, UniProt Q96GD4)"
result = 4.74

[[record]]
chem_smiles = "Cc1cc(Nc2ccnc(CC3CCN(C(=O)c4cccc(Cl)c4F)CC3)n2)[nH]n1"
test_system = "Aurora B (Homo sapiens, UniProt Q96GD4)"
result = 5.38


Now take the following molecule into account.
Enquiry: Return pIC50 for the following molecule: Cc1cc(Nc2ncc(Cl)s2)nc(CC2CCN(C(=O)c3cccc(Cl)c3F)CC2)n1
Return: 6.63

###

Tested on: Colo-320 (colon carcinoma)
Test: MTT cytotoxicity, Colo-320
Type: cell-based
Conditions: Homo sapiens; Colo-320, MTT, 72 h
Method: All cells lines were purchased in ATCC (Manassas, VA, USA), except for human primary fibroblasts (HFB), which were a generous gift from Dashinimaev E.B. (Koltsov Institute of Developmental Biology). […] Cells were seeded in 96-well plates (Corning, NY, USA): 5000 cells per well for adhesive cultures and cells, 25,000 cells per well for suspension cultures. Analyzed substances were added in 0.1–50 μM concentration range, with 2 × dilutions, and incubated for 72 h at 37 °C, 5% CО2. […]
assay-endpoint: pIC50
Answers are plain numbers, as −log10 of the molar value.

// below: answered compounds
[[record]]
compound = "Cc1cc(Nc2ccnc(CC3CCN(C(=O)c4cccc(Cl)c4F)CC3)n2)[nH]n1 [Compound 16]"
result = 5.92

[[record]]
compound = "Cc1cc(Nc2ncc(Cl)s2)nc(CC2CCN(C(=O)c3cccc(Cl)c3F)CC2)n1 [Compound 13]"
result = 6.00

[[record]]
compound = "Cc1cc(Nc2ncc(C)s2)nc(CC2CCN(C(=O)c3cccc(Cl)c3F)CC2)n1 [Compound 11]"
result = 6.10

[[record]]
compound = "Cc1cc(Nc2cccc(CC3CCN(C(=O)c4cccc(Cl)c4F)CC3)n2)[nH]n1 [Compound 15]"
result = 6.00


Enquiry: Specify reported pIC50 for the compound shown: Cc1cc(Nc2nccs2)nc(CC2CCN(C(=O)c3cccc(Cl)c3F)CC2)n1 [Compound 12]
Return: 5.70

###

Target: Aurora A (Homo sapiens, UniProt O14965)
Sequence (O14965 1-403): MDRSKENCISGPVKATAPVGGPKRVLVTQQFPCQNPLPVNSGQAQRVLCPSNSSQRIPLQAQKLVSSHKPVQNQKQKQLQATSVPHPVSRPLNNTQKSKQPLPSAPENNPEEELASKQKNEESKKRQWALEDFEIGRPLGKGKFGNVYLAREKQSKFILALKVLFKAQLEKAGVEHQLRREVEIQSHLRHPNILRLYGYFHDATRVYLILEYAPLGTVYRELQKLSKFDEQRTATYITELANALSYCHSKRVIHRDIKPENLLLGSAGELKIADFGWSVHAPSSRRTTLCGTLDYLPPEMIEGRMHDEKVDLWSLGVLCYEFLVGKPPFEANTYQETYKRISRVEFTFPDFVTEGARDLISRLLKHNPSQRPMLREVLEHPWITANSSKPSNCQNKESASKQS
Assay: Aurora A kinase inhibition (biochemical assay)
Details: Table 2; Mean ± SEM, four repeats; read-out: Aurora A kinase inhibition IC50
Provide the recorded pIC50 for the entries that follow.
One number for each entry, as −log10 of the molar value.

// each compound listed below needs its pIC50
1. Cc1cc(Nc2ccn[nH]2)nc(CC2CCN(C(=O)c3cccc(Cl)c3F)CC2)n1
2. Cc1cc(Nc2ncc(Cl)s2)nc(CC2CCN(C(=O)c3cccc(Cl)c3F)CC2)n1
3. Cc1cc(Nc2ccnc(CC3CCN(C(=O)c4cccc(Cl)c4F)CC3)n2)[nH]n1
4. Cc1cc(Nc2cccc(CC3CCN(C(=O)c4cccc(Cl)c4F)CC3)n2)[nH]n1
5. Cc1cc(Nc2nccs2)nc(CC2CCN(C(=O)c3cccc(Cl)c3F)CC2)n1
6. Cc1cc(Nc2ncc(C)s2)nc(CC2CCN(C(=O)c3cccc(Cl)c3F)CC2)n1

Return:
1. 8.28
2. 8.39
3. 8.46
4. 7.76
5. 7.45
6. 7.92

###

Target: Aurora A (Homo sapiens, UniProt O14965)
Assay: Aurora A kinase inhibition (biochemical assay)
Conditions: Table 1; read-out: Aurora A, IC50
Kindly state pIC50 for each of the entries shown.
Give bare numbers, as −log10 of the molar value.

[[record]]
chem_smiles = "CCCc1cnc(Nc2cccc(C3CCN(C(=O)CN(C)C)CC3)n2)s1"
result = 5.71

[[record]]
chem_smiles = "CCCc1cnc(Nc2cc(C(C)C)nc(C3CCN(C(=O)C(C)(C)N)CC3)n2)s1"
result = 5.55

[[record]]
chem_smiles = "CCCc1cnc(Nc2cccc(C3CCN(C(=O)CNC)CC3)n2)s1"
result = 5.84


Now, please, on to the next molecule.
Enquiry: Tell me its pIC50 given CCCc1cnc(Nc2cccc(C3CCN(C(=O)CN)CC3)n2)s1 as the entry.
Return: 5.68

###

Protein target, amino acids: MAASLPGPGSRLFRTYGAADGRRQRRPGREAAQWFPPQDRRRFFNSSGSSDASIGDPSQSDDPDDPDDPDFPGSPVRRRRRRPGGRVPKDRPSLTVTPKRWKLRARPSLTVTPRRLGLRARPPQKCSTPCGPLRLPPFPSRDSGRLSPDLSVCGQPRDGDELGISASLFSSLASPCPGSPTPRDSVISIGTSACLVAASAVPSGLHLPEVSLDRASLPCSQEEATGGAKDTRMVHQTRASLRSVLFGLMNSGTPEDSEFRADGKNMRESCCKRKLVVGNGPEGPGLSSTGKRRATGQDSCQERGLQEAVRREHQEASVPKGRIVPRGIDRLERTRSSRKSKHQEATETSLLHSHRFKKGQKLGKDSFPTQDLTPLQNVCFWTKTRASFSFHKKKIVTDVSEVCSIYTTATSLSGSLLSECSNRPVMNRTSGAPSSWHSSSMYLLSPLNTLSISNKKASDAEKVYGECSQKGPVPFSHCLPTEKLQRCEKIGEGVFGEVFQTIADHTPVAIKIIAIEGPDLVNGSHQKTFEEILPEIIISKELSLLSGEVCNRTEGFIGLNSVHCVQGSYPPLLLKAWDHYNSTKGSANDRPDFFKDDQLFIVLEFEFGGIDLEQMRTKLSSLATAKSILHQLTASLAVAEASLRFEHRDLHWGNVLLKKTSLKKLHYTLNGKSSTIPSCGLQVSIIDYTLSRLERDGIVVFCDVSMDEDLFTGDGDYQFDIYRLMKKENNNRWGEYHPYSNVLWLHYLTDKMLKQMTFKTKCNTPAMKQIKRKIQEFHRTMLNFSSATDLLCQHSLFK
assay-endpoint: pIC50
Give bare numbers, as −log10 of the molar value.

[[record]]
chem_smiles = "CCCc1cnc(Nc2cccc(C3CCN(C(=O)CNC)CC3)n2)s1"
assay_endpoint = "pIC50"
result = 6.37


Could you now look at the following compound, please?
Enquiry: Please give measured pIC50 of the following entry: CCCc1cnc(Nc2cccc(C3CCN(C(=O)[C@@H](C)N)CC3)n2)s1
Return: 5.95

###

System: RS4;11 (acute lymphoblastic leukemia)
Experiment: MTT cytotoxicity, RS4;11
Type: cell-based
Details: Homo sapiens; RS4;11, MTT, 72 h
assay-endpoint: pIC50
Numbers only, as −log10 of the molar value.

Below, 4 compounds whose answers are already recorded.
[[record]]
chem_smiles = "Cc1cc(Nc2nccs2)nc(CC2CCN(C(=O)c3cccc(Cl)c3F)CC2)n1"
result = 5.82

[[record]]
chem_smiles = "Cc1cc(Nc2ccnc(CC3CCN(C(=O)c4cccc(Cl)c4F)CC3)n2)[nH]n1"
result = 6.52

[[record]]
chem_smiles = "Cc1cc(Nc2ncc(Cl)s2)nc(CC2CCN(C(=O)c3cccc(Cl)c3F)CC2)n1"
result = 5.96

[[record]]
chem_smiles = "Cc1cc(Nc2cccc(CC3CCN(C(=O)c4cccc(Cl)c4F)CC3)n2)[nH]n1"
result = 7.00


Next compound, pIC50 to be filled in.
Enquiry: Return pIC50 (reported value) for this compound: Cc1cc(Nc2ncc(C)s2)nc(CC2CCN(C(=O)c3cccc(Cl)c3F)CC2)n1
Return: 6.30

###

Biological target: GSK-3
Test: GSK-3 kinase selectivity
Details: Mean ± SEM
I'd appreciate it if you could supply IC50 values for the items below.
Numbers only, in nM.

[[record]]
chem_smiles = "Cc1cc(Nc2ccn[nH]2)nc(CC2CCN(C(=O)c3cccc(Cl)c3F)CC2)n1"
assay_endpoint = "IC50"
result = 109


Consider now this further compound.
Enquiry: Quickly give me recorded IC50 for Cc1cc(Nc2ccnc(CC3CCN(C(=O)c4cccc(Cl)c4F)CC3)n2)[nH]n1
Return: 293

###

Biological target: CYP2C19 (Homo sapiens)
Sequence (P33261 whole entry): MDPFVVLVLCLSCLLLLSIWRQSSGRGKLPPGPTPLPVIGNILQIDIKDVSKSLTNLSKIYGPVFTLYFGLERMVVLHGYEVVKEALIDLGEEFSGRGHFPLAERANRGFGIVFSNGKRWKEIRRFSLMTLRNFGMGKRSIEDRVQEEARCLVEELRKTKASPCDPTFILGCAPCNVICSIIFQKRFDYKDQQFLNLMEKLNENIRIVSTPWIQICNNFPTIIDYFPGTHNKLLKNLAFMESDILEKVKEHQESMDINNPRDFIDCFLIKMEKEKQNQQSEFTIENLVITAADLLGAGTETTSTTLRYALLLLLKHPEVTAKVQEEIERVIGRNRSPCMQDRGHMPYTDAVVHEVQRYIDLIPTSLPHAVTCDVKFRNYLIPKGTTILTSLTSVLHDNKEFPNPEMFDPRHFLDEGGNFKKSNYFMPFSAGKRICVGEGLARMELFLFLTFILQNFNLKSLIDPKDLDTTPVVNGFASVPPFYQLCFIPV
Provide the reported IC50 of each item.
Give bare numbers, in µM.

[[record]]
compound = "Cc1cc(Nc2ccnc(CC3CCN(C(=O)c4cccc(Cl)c4F)CC3)n2)[nH]n1 [Compound 16]"
result = 0.966


Please find the next compound below.
Enquiry: Look up IC50 of Cc1cc(Nc2ccn[nH]2)nc(CC2CCN(C(=O)c3cccc(Cl)c3F)CC2)n1 [Compound 14] and report it.
Return: 9.6
